- TEST_PROTOCOL: Pharmacokinetics and biodistribution after 3% PS gel on outer surface of eyelid (Example 26)
- Type: in vivo, rabbit
- RECORDED_CONDITIONS: male, New Zealand White, rabbit, topical; eyelid, 24 h; rabbits, 3% PS gel on outer surface of upper eyelids; read-out: Amount in tissue, Mean ± SEM
Let's look at some molecules and their measured concentration at 24 h.
Reply numerically in nM, unit not repeated.

CC1=C(CC(=O)O)c2cc(F)ccc2/C1=C\c1ccc([S+](C)[O-])cc1 (centres unmarked) [sulindac] :: 0

// next entry
concentration at 24 h for CCOP(=O)(OCC)OCCCCOC(=O)CC1=C(C)/C(=C/c2ccc([S+](C)[O-])cc2)c2ccc(F)cc21 (centres unmarked) [PS, phosphosulindac] is 1800

These data points were gathered from patent US20250345350A1.
